- System: E. faecium
- Test summary: AK assay 384-well format, Prestwick library screening
- Assay type: cell-based, Enterococcus faecium
- Settings: Enterococcus faecium, 3 h; 50 μM final drug concentration; planktonic; cutoff for positive-scoring molecules 3-fold increase; read-out: AK-based Prestwick Library Screening Results, E. faecium (fold increase in extracellular AK activity)
Structures can show the parent of a compound that is named as a salt. Where a SMILES comes first, the peptide text is derived from it. Bridges are numbered along the chain shown (N, C = ends). [ ]: non-standard residue; d: D form. The star is where a group is joined. Ileψ(thiazoline)Cys = CC[C@H](C)[C@H](N)C1=N[C@H](C(=O)*)CS1; dOrn = NCCC[C@@H](N)C(=O)O
Value type: fold induction at 50 µM
Answer as a number with no unit attached.

Data request: Tell me reported fold induction at 50 µM for C[C@]12CC[C@@H]3c4ccc(OS(=O)(=O)O)cc4CC[C@H]3[C@@H]1CCC2=O [Estropipate] , tested with E. faecium.
Data returned: 1

Data request: Same again, this time with "Oc1ccc(OCc2ccccc2)cc1"
Data returned: 0.6

Data request: Same again, this time with COc1ccccc1N1CCN(CCCNc2cc(=O)n(C)c(=O)n2C)CC1 [Urapidil hydrochloride]
Data returned: 0.9

Data request: Same again, this time with COC(=O)C1=C(C)NC(C)=C(C(=O)OCC(C)C)C1c1ccccc1[N+](=O)[O-] (centres unmarked)
Data returned: 0.9

Data request: Same again, this time with Nc1ccccc1S(N)(=O)=O [Compound 2-Aminobenzenesulfonamide, 2-Aminobenzenesulfonamide]
Data returned: 0.9

Data request: Same again, this time with C#C[C@]1(OC(C)=O)CC[C@H]2[C@@H]3CCC4=C[C@@H](OC(C)=O)CC[C@@H]4[C@H]3CC[C@@]21C [Ethynodiol diacetate]
Data returned: 0.9

Data request: Same again, this time with CN(C)CCN(Cc1ccc(Cl)cc1)c1ccccn1 [Chloropyramine hydrochloride]
Data returned: 0.9

Data request: Same again, this time with CC(=O)OC(C)C[N+](C)(C)C (centres unmarked) [Methacholine chloride]
Data returned: 0.9

Data request: Same again, this time with "Cc1nnc(NS(=O)(=O)c2ccc(N)cc2)s1"
Data returned: 0.9

Data request: Same again, this time with CN[C@@H]1[C@H](O)[C@H](NC)[C@H]2O[C@@]3(O)C(=O)C[C@@H](C)O[C@H]3O[C@@H]2[C@H]1O [Spectinomycin dihydrochloride]
Data returned: 1

Data request: Same again, this time with "CCCCC1(COC(=O)CCC(=O)O)C(=O)N(c2ccccc2)N(c2ccccc2)C1=O"
Data returned: 0.9

Data request: Same again, this time with C[N+]1(C)CCCC(OC(=O)C(O)(c2ccccc2)c2ccccc2)C1 (centres unmarked) [Mepenzolate bromide]
Data returned: 1

Data request: Same again, this time with CC(CN1c2ccccc2Sc2ccccc21)N(C)C (centres unmarked) [Promethazine hydrochloride]
Data returned: 0.8

Data request: Same again, this time with CC[C@H](C)[C@H](N)C1=N[C@H](C(=O)N[C@@H](CC(C)C)C(=O)N[C@H](CCC(=O)O)C(=O)N[C@H](C(=O)N[C@H]2CCCCNC(=O)[C@H](CC(N)=O)NC(=O)[C@@H](CC(=O)O)NC(=O)[C@H](Cc3cnc[nH]3)NC(=O)[C@@H](Cc3ccccc3)NC(=O)[C@H]([C@@H](C)CC)NC(=O)[C@@H](CCCN)NC2=O)[C@@H](C)CC)CS1 [Bacitracin] ({Ileψ(thiazoline)Cys}-L[dE]IK[dOrn]I[dF]H[dD]N; lactam 4-C)
Data returned: 1.3

Data request: Same again, this time with "CCOc1ccc2c(c1)C(C)=CC(C)(C)N2"
Data returned: 0.9

Data request: Same again, this time with "CC1(C)OC(=O)NC1=O"
Data returned: 0.9

Data request: Same again, this time with CCOc1ccc(Cc2nccc3cc(OCC)c(OCC)cc23)cc1OCC [Ethaverine hydrochloride]
Data returned: 1

Data request: Same again, this time with "CCn1cc(C(=O)O)c(=O)c2cnc(N3CCCC3)nc21"
Data returned: 0.9

Data request: Same again, this time with CO[C@@]1(NC(=O)Cc2cccs2)C(=O)N2C(C(=O)O)=C(COC(N)=O)CS[C@@H]21 [Cefoxitin sodium salt]
Data returned: 1

Data request: Same again, this time with C[N+]1(C)[C@@H]2CC[C@H]1C[C@@H](OC(=O)C(CO)c1ccccc1)C2 (some centres unmarked) [Methylatropine nitrate]
Data returned: 1

Data request: Same again, this time with CC1(C)[C@@H](OC(=O)CCC(=O)O)CC[C@]2(C)[C@H]3C(=O)C=C4[C@@H]5C[C@@](C)(C(=O)O)CC[C@]5(C)CC[C@@]4(C)[C@]3(C)CC[C@@H]12 [Carbenoxolone disodium salt]
Data returned: 0.9

Data request: Same again, this time with CC(C(=O)O)c1ccc(C(=O)c2cccs2)cc1 (centres unmarked)
Data returned: 0.9

Data request: Same again, this time with "COc1cc(NS(=O)(=O)c2ccc(N)cc2)nc(OC)n1"
Data returned: 0.9

Data request: Same again, this time with "c1coc(CNc2ncnc3nc[nH]c23)c1"
Data returned: 0.9

Data request: Same again, this time with NS(=O)(=O)c1cc2c(cc1Cl)NC(C(Cl)Cl)NS2(=O)=O (centres unmarked) [Trichlormethiazide]
Data returned: 1.4

Data request: Same again, this time with "O=C(O)Cc1ccc(-c2ccccc2)cc1"
Data returned: 0.9

Data request: Same again, this time with NS(=O)(=O)c1cc(Cl)c(Cl)c(S(N)(=O)=O)c1 [Dichlorphenamide]
Data returned: 1.1

Data request: Same again, this time with O=C(NCC1CCCCN1)c1cc(OCC(F)(F)F)ccc1OCC(F)(F)F (centres unmarked) [Flecainide acetate]
Data returned: 0.9

Data request: Same again, this time with "Nc1nc(O)c2ncn(COC(CO)CO)c2n1"
Data returned: 0.9
